I'd appreciate it if you could supply IC50 values for the items below.
target: KRas G12R (Homo sapiens, UniProt P01116, G12R); assay: biochemical;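 further: TR-FRET displacement assay of compound binding to KRas, read after one hour at room temperature, potency from a four-parameter fit of percent-of-control values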
Sequence (P01116 1-169 isoform P01116-2 G12R): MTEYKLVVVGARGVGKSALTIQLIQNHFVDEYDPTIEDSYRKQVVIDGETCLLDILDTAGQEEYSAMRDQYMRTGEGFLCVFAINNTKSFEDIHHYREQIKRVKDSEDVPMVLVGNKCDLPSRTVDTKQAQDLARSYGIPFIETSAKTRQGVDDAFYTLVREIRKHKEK
Write the numeric value and append its unit.

Consider the following illustrative entries.
CCc1c(F)ccc2cc(O)cc(-c3ncc4c(N5CCCC6(CC(F)C6)C5)nc(OC[C@@]56CCCN5C[C@H](F)C6)nc4c3F)c12 (stereo partly shown)    94 nM
CCc1cccc2cc(O)c(F)c(-c3ncc4c(N5CCC[C@@](C)(O)C5)nc(OC[C@@]56CCCN5C[C@H](F)C6)nc4c3F)c12    18 nM
CCc1cccc2cccc(-c3ncc4c(N5CCOCC(C)(O)C5)nc(OCC56CCCN5CCC6)nc4c3F)c12 (stereo not shown)    439 nM

Query (compound): NS(=O)(=O)CC1CCCN(c2nc(OCC34CCCN3CCC4)nc3c(F)c(-c4cccc5cccc(CO)c45)ncc23)C1 (stereo not shown) ; field requested: IC50
2830 nM
